Origin of the recorded values: patent US20230135894A1

Target Of Assay: MK2 (Homo sapiens, UniProt P49137)
Sequence (P49137 whole entry): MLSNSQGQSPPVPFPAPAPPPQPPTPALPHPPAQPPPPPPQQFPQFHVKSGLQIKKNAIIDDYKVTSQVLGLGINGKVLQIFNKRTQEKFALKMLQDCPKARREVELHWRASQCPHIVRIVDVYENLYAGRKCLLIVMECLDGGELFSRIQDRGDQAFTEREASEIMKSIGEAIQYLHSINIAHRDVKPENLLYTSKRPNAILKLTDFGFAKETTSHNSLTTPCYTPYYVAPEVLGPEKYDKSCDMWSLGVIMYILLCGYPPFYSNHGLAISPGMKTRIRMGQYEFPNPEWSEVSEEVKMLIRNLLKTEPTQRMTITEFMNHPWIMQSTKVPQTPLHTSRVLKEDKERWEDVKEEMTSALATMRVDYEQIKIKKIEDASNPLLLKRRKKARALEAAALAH
Test Protocol: MK2 degradation in human THP-1 monocytic cells (MSD, 24 h)
Format: cell-based
Parameters: endogenous in cells
Measurement Conditions: THP-1 cells, read-out: MK2 MSD THP-1 degradation 24 h GMean External Abs DC50

>  <Molecule>
Cn1c(=O)n(C2CCC(=O)NC2=O)c2ccc(N3CCC(CN4CCN(c5ccc(-c6cc(-c7cc8c([nH]7)C7(CC7)CNC8=O)ccn6)cc5)CC4)CC3)cc21 (stereo not drawn)

>  <DC50>
< 1 nM

$$$$
>  <Molecule>
C[C@@H]1CNc2c(sc3ccc4nc(-c5ccc(N6CC7(CCN(c8ccc9c(c8)n(C)c(=O)n9C8CCC(=O)NC8=O)CC7)C6)nc5)ccc4c23)C(=O)N1 (stereo partly drawn)

>  <DC50>
< 1 nM

$$$$
>  <Molecule>
C[C@@H]1CNc2c(sc3ccc4nc(-c5cncc(N6CCN(CCCCCCCc7cccc8c7n(C)c(=O)n8C7CCC(=O)NC7=O)CC6)c5)ccc4c23)C(=O)N1 (stereo partly drawn)

>  <DC50>
< 1 nM

$$$$

====

Entries and their DC50 values follow.
Target Of Assay: MK2 (Homo sapiens, UniProt P49137)
Test Protocol: MK2 degradation in human SW1353 cells (MSD, 24 h)
Format: cell-based
Set-up: endogenous in cells; host or cells: SW-1353 (ATCC HTB-94)
Measurement Conditions: read-out: MK2 MSD SW1353 degradation 24 h GMean External Abs DC50
Procedure: MK2 Degradation in Human SW1353 Cells […] After 3 more washes, the secondary detection antibody (SULFO-Tag anti rabbit antibody R32AB-5) was added at a final concentration of 1 microgram per ml at 25 microlitres per well and shaken at room temperature for 1 hour at 600 rpm. After 3 more washes, the 1×MSD (diluted from 5× concentrate with water) reading buffer was added at 150 microlitres per well and read on the MSD instrument Meso Sector S 600. […]
Readout Name: DC50

>  <Molecule>
C[C@@H]1CNc2c(sc3ccc4nc(N5CCCN(C6CC7(CCN(c8ccc9c(c8)n(C)c(=O)n9C8CCC(=O)NC8=O)CC7)C6)CC5)ccc4c23)C(=O)N1 (stereo partly shown)

>  <Result Value>
1 to 10 nM

$$$$
>  <Molecule>
Cc1ccc(NC(=O)c2cccc(C(F)(F)F)c2)cc1N1Cc2cnc(Nc3ccc(N4CCN(CCCCC(=O)N[C@H](C(=O)N5C[C@H](O)C[C@H]5C(=O)N[C@@H](C)c5ccc(-c6scnc6C)cc5)C(C)(C)C)CC4)nc3)nc2N(C)C1=O

>  <Result Value>
1 to 10 nM

$$$$
>  <Molecule>
C[C@@H]1CNc2c(sc3ccc4nc(-c5ccc(N6CCC(CN7CCN(c8ccc9c(c8)n(C)c(=O)n9C8CCC(=O)NC8=O)CC7)CC6)cc5)ccc4c23)C(=O)N1 (stereo partly shown)

>  <Result Value>
< 1 nM

$$$$
>  <Molecule>
C[C@@H]1CNc2c(sc3ccc4nc(-c5ccc(N6CCN(CC7CN(c8ccc9c(c8)n(C)c(=O)n9C8CCC(=O)NC8=O)C7)CC6)nc5)ccc4c23)C(=O)N1 (stereo partly shown)

>  <Result Value>
< 1 nM

$$$$
>  <Molecule>
C[C@@H]1CNc2c(sc3ccc4nc(-c5cncc(N6CCN(CC7CCN(c8cccc9c8n(C)c(=O)n9C8CCC(=O)NC8=O)CC7)CC6)c5)ccc4c23)C(=O)N1 (stereo partly shown)

>  <Result Value>
< 1 nM

$$$$
>  <Molecule>
Cn1c(=O)n(C2CCC(=O)NC2=O)c2cccc(CCCCCCCCN3CCC4(CC3)CNC(=O)c3c4[nH]c4c3CCc3cnc(-c5ccccc5F)cc3-4)c21 (stereo not shown)

>  <Result Value>
> 100 nM

$$$$
>  <Molecule>
Cc1ccc(NC(=O)c2cccc(C(F)(F)F)c2)cc1N1Cc2cnc(Nc3ccc(N4CCN(CCCCCC(=O)N[C@H](C(=O)N5C[C@H](O)C[C@H]5C(=O)N[C@@H](C)c5ccc(-c6scnc6C)cc5)C(C)(C)C)CC4)nc3)nc2N(C)C1=O

>  <Result Value>
10 to 100 nM

$$$$
>  <Molecule>
Cn1c(=O)n(C2CCC(=O)NC2=O)c2cccc(CCN3CCN(c4ccc(-c5nccc(-c6cc7c([nH]6)C6(CC6)CNC7=O)c5F)cc4)CC3)c21 (stereo not shown)

>  <Result Value>
10 to 100 nM

$$$$
>  <Molecule>
C[C@@H]1CN(C)c2c(sc3ccc4nc(-c5ccc(N6CCN(CC7CN(c8ccc9c(c8)n(C)c(=O)n9C8CCC(=O)NC8=O)C7)CC6)nc5)ccc4c23)C(=O)N1 (stereo partly shown)

>  <Result Value>
< 1 nM

$$$$
>  <Molecule>
C[C@@H]1CNc2c(sc3ccc4nc(-c5ccc(N6CCC(CCN7CCN(c8cccc9c8n(C)c(=O)n9C8CCC(=O)NC8=O)CC7)CC6)cc5)ccc4c23)C(=O)N1 (stereo partly shown)

>  <Result Value>
1 to 10 nM

$$$$

====

# reported Dmax; entries follow
Target Of Assay: MK2 (Homo sapiens, UniProt P49137)
Test Protocol: MK2 degradation in human SW1353 cells (MSD, 24 h)
Type: cell-based
Set-up: endogenous in cells; host or cells: SW-1353 (ATCC HTB-94)
Measurement Conditions: read-out: MK2 MSD SW 1353 24 h Dmax %

>  <Compound>
C[C@@H]1CNc2c(sc3ccc4nc(-c5ccnc(N6CCN(CCCc7ccc8c(c7)n(C)c(=O)n8C7CCC(=O)NC7=O)CC6)c5)ccc4c23)C(=O)N1 (stereo partly drawn)

>  <Target Of Assay>
MK2 (Homo sapiens, UniProt P49137)

>  <Dmax>
> 75%

$$$$
>  <Compound>
C[C@@H]1CNc2c(sc3ccc4nc(-c5ccc(N6CCN(CC7CN(c8cccc9c8n(C)c(=O)n9C8CCC(=O)NC8=O)C7)CC6)cc5)ccc4c23)C(=O)N1 (stereo partly drawn)

>  <Target Of Assay>
MK2 (Homo sapiens, UniProt P49137)

>  <Dmax>
> 75%

$$$$
>  <Compound>
Cn1c(=O)n(C2CCC(=O)NC2=O)c2cccc(CCN3CCN(c4ccc(-c5cc(-c6cc7c([nH]6)C6(CC6)CNC7=O)ccn5)cc4)CC3)c21 (stereo not drawn)

>  <Target Of Assay>
MK2 (Homo sapiens, UniProt P49137)

>  <Dmax>
> 75%

$$$$
